system: U-2 OS; assay: cell painting activity score (Mahalanobis distance from DMSO wells); higher = stronger morphological phenotype; settings: 1.25 µM; 24 h
Assignment: determine reported cell painting activity score for the given molecules.
Reply with just the number.

Param item: O=C(O)CCCc1ccc(N(CCCl)CCCl)cc1 ; param system: U-2 OS; output cell painting activity score: 5.9

Per the reported U-2 OS data, CNC(=O)Nc1ccc2c(c1)[C@@]1(CC2)OC(=O)N(CC(=O)N(Cc2ccc(F)cc2)[C@@H](C)C(F)(F)F)C1=O has cell painting activity score of 6.13

Fill in: U-2 OS cell painting activity score for CC1(C)CC[C@]2(C(=O)O[C@@H]3O[C@H](CO)[C@@H](O)[C@H](O)[C@H]3O)CC[C@]3(C)C(=CC[C@@H]4[C@@]5(C)CC[C@H](O[C@@H]6O[C@H](C(=O)O)[C@@H](O)[C@H](O)[C@H]6O[C@@H]6O[C@H](CO)[C@@H](O)[C@H](O)[C@H]6O)C(C)(C)[C@@H]5CC[C@]43C)[C@@H]2C1 = 4.76

# cell painting activity score measured on U-2 OS for item C[C@H]1CCC/C=C/[C@@H]2C[C@H](O)C[C@H]2[C@H](O)/C=C/C(=O)O1 = 14.7

Response field cell painting activity score (U-2 OS) for item O=C(Nc1ccc([N+](=O)[O-])cc1Cl)c1cc(Cl)ccc1O : 8.61

Lab entry: U-2 OS assay, molecule O=C(/C(C(N1CC2=CC=CC=C2)=O)=C/C3=C(C)C=C(O)C=C3C)N(CC4=CC=CC=C4)C1=O , cell painting activity score = 5.14

* * *

Give cell painting activity score for every item shown.
system: U-2 OS; assay: cell painting activity score (Mahalanobis distance from DMSO wells); higher = stronger morphological phenotype; settings: 1.25 µM; 24 h
API doc: respond with a numeric literal and nothing else, no unit.

# cell painting activity score of CC1=C2C(=CO[C@H](C)[C@H]2C)C(=O)C(C(=O)O)=C1O = 5.94

Entry O=c1c2ccccc2[se]n1-c1ccccc1 ; cell painting activity score = 5.85

Kindly note the recorded cell painting activity score for O=C(O[C@@H]1Cc2c(O)cc(O)cc2O[C@@H]1c1cc(O)c(O)c(O)c1)c1cc(O)c(O)c(O)c1 , which is 4.88

Kindly note the recorded cell painting activity score for CC[C@@]1(O)C(=O)OCc2c1cc1n(c2=O)Cc2cc3ccccc3nc2-1 , which is 12.4

compound CC(C)C[C@@H](C=O)NC(=O)[C@@H](CC(C)C)NC(=O)[C@H](CC(C)C)NC(=O)OCc1ccccc1 , cell painting activity score observed: 4.34

The reported value for COC1=C2C[C@@H](C)C[C@H](OC)[C@H](O)[C@@H](C)/C=C(\C)[C@H](OC(N)=O)[C@@H](OC)/C=C\C=C(/C)C(=O)NC(=CC1=O)C2=O in terms of cell painting activity score is 12.7

What the record says about O=C1C=CC(=O)N1c1ccccc1 : cell painting activity score is 4.24

Value of cell painting activity score reported for the compound CCN(CC)CCNC(=O)c1c(C)[nH]c(/C=C2\C(=O)Nc3ccc(F)cc32)c1C is 11.5

Recorded result, O=C(Nc1nc(-c2ccccc2)ns1)c1cccs1 , cell painting activity score: 4.47

Entry C=CC(=O)Nc1ccc(CN2C(=O)N(c3cc(OC)cc(OC)c3)Cc3cnc(Nc4ccc(N5CCN(C)CC5)cc4)nc32)cc1 ; cell painting activity score = 8.57

What the record says about C=C1[C@@H](C)[C@H]2[C@H](Cc3ccccc3)NC(=O)[C@]23OC(=O)/C=C/[C@H](O)CCC[C@@H](C)C/C=C/[C@H]3[C@@H]1O : cell painting activity score is 11.2

cell painting activity score measured on O=c1c(O)c(-c2ccc(O)c(O)c2)oc2cc(O)ccc12 = 5.04

# compound Cc1cnc(CNC(=O)c2c(=O)c3ccc(N4CCCN(C)CC4)nc3n3c2sc2ccccc23)cn1 ; its cell painting activity score = 10.9

Just so you know, measured cell painting activity score for Cn1c(SC2=CS(=O)(=O)c3ccccc32)nnc1-c1ccc(O)cc1 came out at 8.31

Entry N[C@@H](Cc1ccc(N(CCCl)CCCl)cc1)C(=O)O ; cell painting activity score = 5.26

Entry O=[N+]([O-])c1cc(Br)c2nsnc2c1Sc1ncnc2nc[nH]c12 — recorded cell painting activity score = 8.02

cell painting activity score for C[C@@H]1C[C@H]2O[C@@H]2/C=C\C=C\C(=O)Cc2c(Cl)c(O)cc(O)c2C(=O)O1 is 14.1

* * *

Consider the following compounds; for each one, report its relative cell count.
tested on: U-2 OS; assay: relative cell count vs DMSO (cell painting) (fraction of DMSO control); higher = more cells remaining (less cytotoxic); details: 1.25 µM; 24 h
Simply state the number, no unit and no words.

Log: U-2 OS, compound CC(C)(C)C(=O)OCOc1cccc2ccccc12 , relative cell count = 0.983

Tested on U-2 OS: C=CC(=O)Nc1cc(Nc2nccc(-c3cn(C)c4ccccc34)n2)c(OC)cc1N(C)CCN(C)C . Observed relative cell count: 0.951

// assay U-2 OS, entry COc1ccc(N2C(=O)CC(Sc3nnc(-c4ccccc4)o3)C2=O)cc1 (stereo not given) , relative cell count value = 1.07

Simply: Cl.Nc1ccc(O)c2ccccc12 , U-2 OS, relative cell count = 0.895

Observed relative cell count on U-2 OS, entry CCC(=O)N1CCN(c2ccc(-n3c(=O)ccc4cnc5ccc(-c6cnc7ccccc7c6)cc5c43)cc2C(F)(F)F)CC1 , equals 0.716

* * *

tested on: U-2 OS; assay: relative cell count vs DMSO (cell painting) (fraction of DMSO control); higher = more cells remaining (less cytotoxic); settings: 1.25 µM; 24 h
parameter_measured: relative cell count

Measured relative cell count of Cc1onc(C(=O)N2CCN(C(c3ccc(Cl)cc3)c3ccc(Cl)cc3)CC2)c1[N+](=O)[O-] : 0.945

Input COc1cc(=O)oc(/C=C/C=C/C=C/C(C)=C/[C@]2(C)O[C@H](C)[C@](C)(O)[C@H]2O)c1C . Output relative cell count: 0.982

For COc1c(O)c2c(=O)cc3c4c5c(cc(=O)c6c(O)c(OC)c(CC(C)O)c(c(c1CC(C)O)c24)c65)OCO3 (stereo not drawn) the compound record lists relative cell count as 0.918

* * *

system: U-2 OS; test: cell painting activity score (Mahalanobis distance from DMSO wells); higher = stronger morphological phenotype; conditions: 1.25 µM; 24 h
parameter_measured: cell painting activity score
Note: the reply should be a number with no unit written.

// sample O=C1CC(Nc2ccccc2)C(=O)N1Cc1ccccc1 (stereo not drawn) , its cell painting activity score was 3.72

Data point: CCCCCCCCCCCCCCCc1cccc(O)c1C(=O)O ; cell painting activity score = 3.13

The compound listed as CC(C)(C)C(=O)OCOc1cccc2ccccc12 has a reported cell painting activity score of 4.3

The compound identified as O=C(NNS(=O)(=O)c1ccccc1)c1cc(-c2ccnnc2)ccc1F registered its cell painting activity score at 4.16

For this compound ( O=C1C(NCCN2CCOCC2)=C(Cl)C(=O)c2ncccc21 ), measured cell painting activity score is 13.9

The compound listed as CC(=O)OC1C(c2ccc(=O)oc2)C2(C)CCC3C(CCC4CC(O)CCC43C)C23OC13 (stereo not drawn) has a reported cell painting activity score of 16.2

// cell painting activity score value for CCOc1ccccc1-n1c(C(C)N2CCN(C(=O)COc3ccc(Cl)cc3)CC2)nc2ccccc2c1=O (stereo not drawn) : 5.84

# cell painting activity score of O=C1c2ccccc2[Se](=O)N1c1ccccc1 (stereo not drawn) = 10.4

* * *

test system: U-2 OS; assay: relative cell count vs DMSO (cell painting) (fraction of DMSO control); higher = more cells remaining (less cytotoxic); conditions: 1.25 µM; 24 h
parameter_measured: relative cell count
The reply should be a number, written without any unit.

Entry O=C(OCC)/C(C(OCC)=O)=C\CCCCCCCCCCCCCC ; relative cell count = 0.978

Query O=C(O[C@@H]1Cc2c(O)cc(O)cc2O[C@@H]1c1cc(O)c(O)c(O)c1)c1cc(O)c(O)c(O)c1 yields relative cell count of 1

Notebook: O=C(OC[C@H]1O[C@@H](OC(=O)c2cc(O)c(O)c(OC(=O)c3cc(O)c(O)c(O)c3)c2)[C@H](OC(=O)c2cc(O)c(O)c(OC(=O)c3cc(O)c(O)c(O)c3)c2)[C@@H](OC(=O)c2cc(O)c(O)c(OC(=O)c3cc(O)c(O)c(O)c3)c2)[C@@H]1OC(=O)c1cc(O)c(O)c(OC(=O)c2cc(O)c(O)c(O)c2)c1)c1cc(O)c(O)c(OC(=O)c2cc(O)c(O)c(O)c2)c1 , relative cell count read as 1.02

molecule O=C(CBr)N1CC([N+](=O)[O-])([N+](=O)[O-])C1 , relative cell count observed: 1.02

Form: molecule = C/C1=C/C(=O)O[C@@H]2C[C@@H](CC[C@H](C)/C=C\CC1)O[C@@](O)([C@@H]1CSC(=O)N1)C2 ; relative cell count = 0.878

Per the record, Nc1ccn([C@@H]2O[C@H](CO)[C@@H](O)C2(F)F)c(=O)n1 has relative cell count of 0.571

// O=C(O)C1=CC(=C(c2ccc(O)c(C(=O)O)c2)c2ccc(O)c(C(=O)O)c2)C=CC1=O : relative cell count value = 0.98

Notebook: O=C1CCC(=O)N1c1ccc(O)cc1 , relative cell count read as 0.976

Item: Nc1nc(-c2ccccc2)[n+](-c2ccccc2)s1 | relative cell count: 1.11
